Data provenance: PubChem BioAssay (EPA / NIEHS)

- Read-out: Cytochrome P450 2B6 (Homo sapiens) (UniProt P20813)
- Protocol Text: CLD_CYP2B6_24hr: CellzDirect (CLD) Gene Expression Assay for xenobiotic metabolism (CYP2B6) at 24 hours (AID 2283686)
Results filed as inconclusive are left out. Activity calls are given as the source filed them. How the source made its calls: active means hit-call score of the fitted dose curve at least 0.9, where 1 is the maximum; inconclusive means response in the unintended direction; inactive means score below 0.9.
Labels: active, inactive

Compound	Label Class
C#CCOC(=O)[C@@H](C)Oc1ccc(Oc2ncc(Cl)cc2F)cc1	active
CCNc1nc(N)nc(Cl)n1	inactive
CCN(Cc1c(F)cccc1Cl)c1c([N+](=O)[O-])cc(C(F)(F)F)cc1[N+](=O)[O-]	active
CCCN(CCC)c1c([N+](=O)[O-])cc(C(F)(F)F)c(N)c1[N+](=O)[O-]	active
CCCCC(CC)COC(=O)c1ccccc1C(=O)O (configuration not stated)	active
COC(=O)CSc1cc(N=c2sc(=O)n3n2CCCC3)c(F)cc1Cl	active
CCN(CC)C(=O)c1cccc(C)c1	active
O=C(Nc1ccc([N+](=O)[O-])cc1Cl)c1cc(Cl)ccc1O	inactive
CCCOC(=O)NCCCN(C)C	inactive
CCOC(=O)COc1cc(-n2ncc(C(F)(F)F)c(C)c2=O)c(F)cc1Cl	active
CCCCCOC(=O)COc1cc(N2C(=O)C3=C(CCCC3)C2=O)c(F)cc1Cl	inactive
COC(=O)c1cccc(C)c1S(=O)(=O)NC(=O)Nc1nc(OCC(F)(F)F)nc(N(C)C)n1	active
CCCCOCCOCCOCc1cc2c(cc1CCC)OCO2	active
COC(=O)c1ccc(CNS(C)(=O)=O)cc1S(=O)(=O)NC(=O)Nc1nc(OC)cc(OC)n1	inactive
Cc1nn(C)c(Oc2ccccc2)c1C=NOCc1ccc(C(=O)OC(C)(C)C)cc1	active
CCCCCCC(C)OC(=O)COc1nc(F)c(Cl)c(N)c1Cl (configuration not stated)	inactive
CC(C)(c1ccc(O)cc1)c1ccc(O)cc1	inactive
CCSC(=O)N(CC(C)C)CC(C)C	inactive
CSC(=O)c1cccc2nnsc12	inactive
CCCCOC(=O)[C@@H](C)Oc1ccc(Oc2ccc(C(F)(F)F)cn2)cc1	inactive
O=C(O)C1(C(=O)Nc2ccc(Cl)cc2Cl)CC1	inactive
COc1nc(C)nc(NC(=O)NS(=O)(=O)c2ccccc2OCCCl)n1	inactive

* * *

- Protocol Text: BSK_CASM3C_SRB: Viability Assessment in the BioMAP Diversity Plus: CASM3C Assay (AID 2283050);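 further: total protein by SRB staining as cytotoxicity measure in parallel cultures; cells exposed to compound for 24 h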
- Condition Context: primary human coronary artery smooth muscle cells
Active and inactive are the calls of the source. The calls were made as follows: active = hit-call score of the fitted dose curve at least 0.9, where 1 is the maximum; inactive = score below 0.9.
Reported Endpoint: outcome

Compound	Reported Endpoint	Data Value
O=C(O)C1(C(=O)Nc2ccc(Cl)cc2Cl)CC1	outcome	inactive
CCN(Cc1c(F)cccc1Cl)c1c([N+](=O)[O-])cc(C(F)(F)F)cc1[N+](=O)[O-]	outcome	inactive
COC(=O)c1ccc(I)cc1S(=O)(=O)NC(=O)Nc1nc(C)nc(OC)n1	outcome	inactive
COC(=O)c1c(Cl)nn(C)c1S(=O)(=O)NC(=O)Nc1nc(OC)cc(OC)n1	outcome	inactive
CCOC(=O)C(C)Oc1ccc(Oc2cnc3cc(Cl)ccc3n2)cc1 (stereo unspecified)	outcome	inactive
COc1c(Cl)ccc(Cl)c1C(=O)O	outcome	inactive
CC(=O)S[C@@H]1CC2=CC(=O)CC[C@]2(C)[C@H]2CC[C@@]3(C)[C@@H](CC[C@@]34CCC(=O)O4)[C@H]12	outcome	inactive
CC(=O)[C@H]1CC[C@H]2[C@@H]3CCC4=CC(=O)CC[C@]4(C)[C@H]3CC[C@]12C	outcome	inactive
O=C(O)c1ccccc1	outcome	inactive
S=C([S-])NCCNC(=S)[S-].[Mn+2]	outcome	inactive
CCCCOCCOCCOCc1cc2c(cc1CCC)OCO2	outcome	inactive

* * *

- Test Target: Cytochrome P450 2C19 (Homo sapiens) (UniProt P33261)
- Protocol Text: NVS_ADME_hCYP2C19: NovaScreen (NVS) CYP450-related Enzyme Activity (ADME) Assay for human CYP2C19 (AID 2283113)
Records with an inconclusive call do not appear. The source made the active and inactive calls. How the source made its calls: active means hit-call score of the fitted dose curve at least 0.9, where 1 is the maximum; inconclusive means response in the unintended direction; inactive means score below 0.9.
Labels: 1 (active), 0 (inactive)

Compound	Label Class
CCCCOC(=O)C(C)Oc1ccc(Oc2ccc(C(F)(F)F)cn2)cc1 (configuration not stated)	0
CCCCOC(=O)[C@@H](C)Oc1ccc(Oc2ccc(C(F)(F)F)cn2)cc1	0
CCOC(=O)[C@H](C)Oc1ccc(Oc2nc3ccc(Cl)cc3o2)cc1	0
CC(C)(C)[C@@H](O)[C@@H](Cc1ccc(Cl)cc1)n1cncn1	1
COC(=O)c1ccccc1C(=O)O	1
Oc1ccc(C(c2ccc(O)cc2)C(Cl)(Cl)Cl)cc1	1
CCCOC(=O)c1ccc(C(=O)OCCC)nc1	1
N#CSCSc1nc2ccccc2s1	1
CCCCOCCOCCOCc1cc2c(cc1CCC)OCO2	1
O=C(c1ccc(O)cc1O)c1ccc(O)cc1O	1
S=C([S-])NCCNC(=S)[S-].[Mn+2]	1
C=CCOC(Cn1ccnc1)c1ccc(Cl)cc1Cl (configuration not stated)	1

* * *

- Protocol Text: STM_H9_OrnithineISnorm_perc: Stemina devTOX quickPredict H9 human embryonic stem cell (hESC)-based Assay for Ornithine (ORN) Metabolite Biomarker, Normalized (AID 2283712);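 further: ornithine released into spent medium during last day measured by mass spectrometry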
The source made the active and inactive calls. How the source made its calls: active means hit-call score of the fitted dose curve at least 0.9, where 1 is the maximum; inactive means score below 0.9.
Labels: t = active, f = inactive

Compound	Label Class
Oc1ccc(C(c2ccc(O)cc2)C(Cl)(Cl)Cl)cc1	t
CC(C)(c1ccc(O)cc1)c1ccc(O)cc1	t
C=CCOC(Cn1ccnc1)c1ccc(Cl)cc1Cl (configuration not stated)	f
CN(C)C(=O)Nc1ccc(Cl)c(Cl)c1	f
C#CCOC(=O)[C@@H](C)Oc1ccc(Oc2ncc(Cl)cc2F)cc1	t
CC(C)CCCCCCc1ccc(O)cc1	t
O=C(Nc1ccc([N+](=O)[O-])cc1Cl)c1cc(Cl)ccc1O	f

* * *

- Tested on: frog Estrogen Receptor (ER2), gene 100174814
- Protocol Text: ATG_frER2_XSP2: Attagene TRANS-FACTORIAL Multi-Species (XSP2) HepG2 Assay for frog Estrogen Receptor (ER2) (AID 2283828)
Records with an inconclusive call do not appear. Activity calls are given as the source filed them. The calls were made as follows: active = hit-call score of the fitted dose curve at least 0.9, where 1 is the maximum; inconclusive = response in the unintended direction; inactive = score below 0.9.
Labels: TRUE = active, FALSE = inactive

Compound	Label Class
CC(C)CCCCCCc1ccc(O)cc1	TRUE
Oc1ccc(C(c2ccc(O)cc2)C(Cl)(Cl)Cl)cc1	FALSE
CSC(=O)c1cccc2nnsc12	FALSE
CCCCC(CC)CN1C(=O)C2C3C=CC(C3)C2C1=O (stereo not given)	TRUE
O=C(c1ccc(O)cc1O)c1ccc(O)cc1O	TRUE

* * *

- Read-out: Interleukin-1 alpha (IL1a), IL1A (gene 3552)
- Protocol Text: BSK_LPS_IL1a: BioMAP Diversity Plus: LPS Assay for Interleukin-1 alpha (IL1a) Biomarker Activity (AID 2283080)
- Condition Context: primary human HUVEC with PBMC; actives raise or lower the signal
Active and inactive are the calls of the source. How the source made its calls: active means hit-call score of the fitted dose curve at least 0.9, where 1 is the maximum; inactive means score below 0.9.
Labels: active, inactive

Compound	Label Class
C[C@]12C[C@H](O)[C@H]3[C@@H](CCC4=CC(=O)CC[C@@]43C)[C@@H]1CC[C@@H]2C(=O)CO	inactive
OB(O)O	inactive
c1ccc2[nH]c(-c3cscn3)nc2c1	inactive
CCN(Cc1c(F)cccc1Cl)c1c([N+](=O)[O-])cc(C(F)(F)F)cc1[N+](=O)[O-]	inactive
CSC(=O)c1cccc2nnsc12	inactive
CCN(CC)C(=O)c1cccc(C)c1	inactive
CCCCOC(=O)[C@@H](C)Oc1ccc(Oc2ccc(C(F)(F)F)cn2)cc1	inactive
O=C(O)c1ccccc1	inactive
CCCCCOC(=O)COc1cc(N2C(=O)C3=C(CCCC3)C2=O)c(F)cc1Cl	inactive
CCCCC(CC)COC(=O)c1ccccc1C(=O)O (configuration not stated)	inactive
CCC(O)=C1C(=O)CC(C(=O)O)CC1=O (configuration not stated)	inactive
CCOC(=O)C(C)Oc1ccc(Oc2cnc3cc(Cl)ccc3n2)cc1 (configuration not stated)	inactive
CCC(C)OC(=O)N1CCCCC1CCO (configuration not stated)	inactive
CCCCC(CC)CN1C(=O)C2C3C=CC(C3)C2C1=O (configuration not stated)	inactive
CC(=O)[C@H]1CC[C@H]2[C@@H]3CCC4=CC(=O)CC[C@]4(C)[C@H]3CC[C@]12C	inactive
Oc1ccc(C(c2ccc(O)cc2)C(Cl)(Cl)Cl)cc1	active
CCCN(CCC)C(=O)SCC	inactive

* * *

- Read-out: HGF (gene 3082)
- Protocol Text: LTEA_HepaRG_HGF: Life Technologies and Expression Analysis (LTEA) Assay for Hepatocyte Growth Facto (HGF) using HepaRG (AID 2283505)
- Condition Context: mRNA level, 48 h; actives raise or lower the signal
The source made the active and inactive calls. Rule for the calls: active = hit-call score of the fitted dose curve at least 0.9, where 1 is the maximum; inactive = score below 0.9.

Molecule	outcome
CCOC(=O)C(C)Oc1ccc(Oc2cnc3cc(Cl)ccc3n2)cc1 (stereo not drawn)	inactive
CCCN(CCC)C(=O)SCC	inactive
CCCN(CCC)c1c([N+](=O)[O-])cc(C(F)(F)F)c(N)c1[N+](=O)[O-]	inactive
